Assay Target: Muscarinic acetylcholine receptor M1 (Homo sapiens)
Assay Comment: Cholinergic receptor muscarinic 1 (CHRM1) small molecule antagonists, cell-based qHTS assay (AID 1963588); also: % is scaled to controls: 0 for no effect and ±100 for the full control effect; nearly all actives have a fitted effect of over 40% in size
Stated Conditions: CHRM1-CHO antagonist mode, calcium flux fluorescence; series mostly up to 61.5 µM
Text: National Center for Advancing Translational Sciences [NCATS] Division of Preclinical Innovation [DPI] U.S. Environmental Protection Agency [EPA] National Institutes of Environmental Health Sciences [NIEHS] National Toxicology Program [NTP] U.S. Food and Drug Administration [FDA] The CHRM1 is a muscarinic receptor. […] The CHRM1-CHO Calcium Flux Assay is a homogeneous fluorescence-based assay for detecting the intracellular calcium level using FDSS kinetic plate reader system. […]
Inconclusive results are not listed. Activity calls are given as the source filed them. Calls follow the shape of the full dose curve.
Endpoint Label: activity, negative = inhibition

Below are worked cases with known answers.
### Prompt GET /values?readout=activity, negative = inhibition&item= `C1=COCCC1`
### Response inactive

### Prompt And what about the compound `CC(=O)O[C@H]1C[C@@H]2CC[C@@]1(C)C2(C)C` ?
### Response inactive

### Prompt Do the same for `O=S(=O)(O)c1cc(O)c(O)c(S(=O)(=O)O)c1` please
### Response inactive

### Prompt Same read-out for `CCOC(=O)CCC(C)=O` ?
### Response inactive

### Prompt Note, next up: `O=C(O)[C@@H]1[C@H]2C[C@H]3c4[nH]c5ccccc5c4CCN3C[C@@H]2CC[C@@H]1O`
### Response inactive

### Prompt Can you check `C[Si](C)(C)O[Si](C)(C)O[Si](C)(C)C` next?
### Response inactive

### Prompt Same thing, different compound: `COC(=O)c1ccccc1C`
### Response inactive

### Prompt Now the compound `C=CC(=O)O[C@H]1C[C@@H]2CC[C@@]1(C)C2(C)C`
### Response inactive

Further cases:
### Prompt For the compound shown here, `C=C(C)[C@H]1CC=C(C)C(=O)C1` , give the reported activity, negative = inhibition.
### Response inactive

### Prompt Next compound: `N#Cc1cc(NC(=O)C(=O)O)c(Cl)c(NC(=O)C(=O)O)c1`
### Response inactive

### Prompt Next compound: `Nc1ccc2cc3ccccc3cc2c1`
### Response inactive

### Prompt Moving on to the next compound: `C=COCCCC`
### Response inactive

### Prompt Another compound: `NC(=O)c1cccc([N+](=O)[O-])c1`
### Response inactive

### Prompt Follow-up entry: O=C(O)C1CCC(C(=O)O)CC1 (stereo not given)
### Response inactive

### Prompt Continue with `Nc1c(Br)cc([N+](=O)[O-])cc1Br`
### Response inactive

### Prompt Entry to check: `Brc1cc(Br)cc(Br)c1`
### Response inactive

### Prompt Input `OCCc1ccccn1`
### Response inactive

### Prompt Similarly, `C=C(C)C(=O)OCCNC(C)(C)C` ?
### Response inactive

### Prompt Then this compound: `CCC(COC(=O)CCS)(COC(=O)CCS)COC(=O)CCS`
### Response inactive

### Prompt Next compound: `C=C[C@H]1CN2CC[C@H]1C[C@@H]2[C@@H](O)c1ccnc2ccc(OC)cc12`
### Response inactive

### Prompt Repeat with `CC(C)OCCO`
### Response inactive

### Prompt Next record, please: `C=CCCCCCCCCCCC`
### Response -16.9% [at 5.58 µM] (inactive)

### Prompt Also, `N[C@H](Cc1c[nH]c2ccccc12)C(=O)O` please.
### Response inactive

### Prompt Similarly, `c1ccc2sc(SSN3CCOCC3)nc2c1` ?
### Response inactive
